Origin of values: the supplement of paper PMC4166925

Each item that follows carries a reported PBM E-score of 8-mer.
# System: PmTbr T-box DNA-binding domain (GST fusion);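 also: 200 nM protein in PBS on universal arrays averaged over duplicate arrays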
# Sequence: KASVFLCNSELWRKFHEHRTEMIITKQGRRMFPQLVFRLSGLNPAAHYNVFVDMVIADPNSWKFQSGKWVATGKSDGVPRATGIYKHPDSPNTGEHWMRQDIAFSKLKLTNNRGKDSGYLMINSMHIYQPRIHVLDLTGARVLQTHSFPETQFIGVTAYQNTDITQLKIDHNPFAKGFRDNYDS
# methodDescription: PBM E-score of 8-mer (E-score (dimensionless, -0.5 to 0.5)); Tbr is Tbrain of the sea star Patiria miniata (Pm) or the sea urchin Strongylocentrotus purpuratus (Sp); higher = stronger binding preference
# experimentalContext: the construct has about 5 more residues each side
The full ranking holds about 33,000 sequences; the median of “E-score (dimensionless, -0.5 to 0.5)” is about -0.049, and the highest 2% start at about 0.37. What follows is part of a selection rich in the highest values, with near analogues and random picks from the rest.
Answer using only a numeral; do not append any unit.

A selection of reference data follows.
   itemsequence  numericresult
0      AGCCGACA          0.165
1      AGTGGAAT        -0.0212

// query Lab note: need PBM E-score of 8-mer for AAGTGATA on PmTbr T-box DNA-binding domain (GST fusion), anyone have it?
// result 0.37

// query Lab note: need PBM E-score of 8-mer for CTGTCACA on PmTbr T-box DNA-binding domain (GST fusion), anyone have it?
// result 0.4
